target: ERRα with PGC-1α (PGC/ERR pathway) (Homo sapiens, UniProt P11474); experiment: PGC/ERR reporter (luciferase) qHTS assay, PGC/ERR-HEK293; settings: PGC/ERR-HEK293 Follow-Up EC50, follow-up screen; mean ± SD, triplicate
reported endpoint: EC50 (nM)

a. COc1ccc2cc3[n+](cc2c1OC)CCc1cc2c(cc1-3)OCO2
b. Cc1nc(N)nc(N)c1-c1ccc(Cl)c(Cl)c1
c. C[C@@H]1CC[C@H]2[C@@H](C)C(=O)O[C@@H]3O[C@@]4(C)CC[C@@H]1[C@]32OO4
Please list the entries, largest EC50 first. Answer format: the labels, in the requested order.
c, a, b
(c: 14500 nM, a: 8930 nM, b: 1570 nM)

###

# Lookup of reported EC50 keyed by entry
Test system: PGC/ERR reporter HEK293 cells
Test: CellTiter-Fluor cell viability assay multiplexed with PGC/ERR reporter assay
Format: cell-based
Settings: Homo sapiens, HEK293, primary qHTS, read-out: PGC/ERR-HEK293 Primary Viability EC50 (converted)
Experimental: ERR or PGC/ERR reporter HEK293 cells suspended in culture medium without puromycin were dispensed at 2500 cells/5 μL/well in tissue culture–treated 1536-well white assay plates (Greiner Bio-One North America, Monroe, NC, USA) using a Thermo Scientific Multidrop Combi (ThermoFisher Scientific, Inc.). […] After 30 min of incubation at room temperature, the luminescence intensity of the assay plates was quantified using a ViewLux plate reader (PerkinElmer, Shelton, CT, USA). […]
Please respond with the number in µM and leave the unit unwritten.

[
  {
    "compound": "C=C(C)[C@H]1Cc2c(ccc3c2O[C@@H]2COc4cc(OC)c(OC)cc4[C@@H]2C3=O)O1",
    "EC50 (µM)": 1.01
  },
  {
    "compound": "CC(C)C[C@H](NC(=O)[C@H](CCc1ccccc1)NC(=O)CN1CCOCC1)C(=O)N[C@@H](Cc1ccccc1)C(=O)N[C@@H](CC(C)C)C(=O)[C@@]1(C)CO1",
    "EC50 (µM)": 1.36
  },
  {
    "compound": "COC(=O)N(OC)c1ccccc1COc1ccn(-c2ccc(Cl)cc2)n1",
    "EC50 (µM)": 74.5
  },
  {
    "compound": "COc1ccc2cc3[n+](cc2c1OC)CCc1cc2c(cc1-3)OCO2",
    "EC50 (µM)": 17.3
  },
  {
    "compound": "COc1cc([C@@H]2c3cc4c(cc3[C@@H](O[C@@H]3O[C@@H]5CO[C@@H](C)O[C@H]5[C@H](O)[C@H]3O)[C@H]3COC(=O)[C@H]23)OCO4)cc(OC)c1O [Etoposide]",
    "EC50 (µM)": 56.3
  }
]

Then this compound:
Please give the measured EC50 for this compound: CC(C)C[C@H](NC(=O)[C@H](Cc1ccccc1)NC(=O)c1cnccn1)B(O)O
0.0628

###

Target: ERRα with PGC-1α (PGC/ERR pathway) (Homo sapiens, UniProt P11474)
Sequence (P11474 1-423): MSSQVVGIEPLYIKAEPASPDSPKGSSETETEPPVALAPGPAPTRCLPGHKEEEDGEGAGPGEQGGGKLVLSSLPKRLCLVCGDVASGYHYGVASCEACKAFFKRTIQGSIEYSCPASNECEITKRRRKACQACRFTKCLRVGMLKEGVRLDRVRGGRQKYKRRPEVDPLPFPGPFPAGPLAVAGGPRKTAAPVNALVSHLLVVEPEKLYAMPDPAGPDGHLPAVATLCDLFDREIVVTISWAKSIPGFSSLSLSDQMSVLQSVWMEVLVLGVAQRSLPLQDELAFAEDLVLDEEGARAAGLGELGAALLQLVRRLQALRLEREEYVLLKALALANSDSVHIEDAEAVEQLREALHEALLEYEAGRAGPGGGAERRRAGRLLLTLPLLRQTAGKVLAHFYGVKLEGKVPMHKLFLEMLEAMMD
Test: PGC/ERR reporter (luciferase) qHTS assay, PGC/ERR-HEK293
Settings: PGC/ERR-HEK293 Primary EC50
reported endpoint: EC50 (nM)
Please respond with the number in nM and leave the unit unwritten.

Please give the measured EC50 for this compound: CC[C@@]1(O)C(=O)OCc2c1cc1n(c2=O)Cc2c-1nc1ccccc1c2/C=N/OC(C)(C)C [Gimatecan]
2530

###

molecular target: ERRα with PGC-1α (PGC/ERR pathway) (Homo sapiens, UniProt P11474); assay: PGC/ERR reporter (luciferase) qHTS assay, PGC/ERR-HEK293; conditions: primary qHTS; negative = antagonism, positive = agonism
reported endpoint: PGC/ERR-HEK293 Primary Efficacy (%)

[
  {
    "line notation": "COc1ccc2cc3[n+](cc2c1OC)CCc1cc2c(cc1-3)OCO2",
    "measurement target": "ERRα with PGC-1α (PGC/ERR pathway) (Homo sapiens, UniProt P11474)",
    "PGC/ERR-HEK293 Primary Efficacy, %": "−77.3"
  },
  {
    "line notation": "C=C(C)[C@H]1Cc2c(ccc3c2O[C@@H]2COc4cc(OC)c(OC)cc4[C@@H]2C3=O)O1",
    "measurement target": "ERRα with PGC-1α (PGC/ERR pathway) (Homo sapiens, UniProt P11474)",
    "PGC/ERR-HEK293 Primary Efficacy, %": "−31.0"
  },
  {
    "line notation": "CC[C@@]1(O)C(=O)OCc2c1cc1n(c2=O)Cc2c-1nc1ccccc1c2/C=N/OC(C)(C)C",
    "measurement target": "ERRα with PGC-1α (PGC/ERR pathway) (Homo sapiens, UniProt P11474)",
    "PGC/ERR-HEK293 Primary Efficacy, %": "−115"
  }
]

P. C[C@@H]1CC[C@H]2[C@@H](C)C(=O)O[C@@H]3O[C@@]4(C)CC[C@@H]1[C@]32OO4
Q. CC(C)C[C@H](NC(=O)[C@H](CCc1ccccc1)NC(=O)CN1CCOCC1)C(=O)N[C@@H](Cc1ccccc1)C(=O)N[C@@H](CC(C)C)C(=O)[C@@]1(C)CO1
Between P and Q , whose measured PGC/ERR-HEK293 Primary Efficacy reads higher? Field: selected label. Fill in the label of the entry you choose.
P
(P: −57.6%, Q: −121%)

###

Target: ERRα with PGC-1α (PGC/ERR pathway) (Homo sapiens, UniProt P11474)
Sequence (P11474 1-423): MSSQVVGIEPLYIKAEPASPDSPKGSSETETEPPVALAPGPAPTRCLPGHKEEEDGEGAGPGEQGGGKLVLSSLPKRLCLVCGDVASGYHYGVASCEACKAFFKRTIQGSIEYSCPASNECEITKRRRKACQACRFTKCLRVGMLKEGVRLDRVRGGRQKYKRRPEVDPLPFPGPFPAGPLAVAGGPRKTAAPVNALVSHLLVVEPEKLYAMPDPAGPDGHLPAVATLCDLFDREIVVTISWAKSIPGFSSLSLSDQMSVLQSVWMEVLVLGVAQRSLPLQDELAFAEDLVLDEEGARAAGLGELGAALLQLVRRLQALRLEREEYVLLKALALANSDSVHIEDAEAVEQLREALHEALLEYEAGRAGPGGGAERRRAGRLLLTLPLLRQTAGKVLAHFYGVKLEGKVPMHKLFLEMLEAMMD
Assay: PGC/ERR reporter (luciferase) qHTS assay, PGC/ERR-HEK293
Conditions: follow-up screen; negative = antagonism, positive = agonism
reported endpoint: PGC/ERR-HEK293 Follow-Up Efficacy (%)

Example results:
[
  {
    "molecule": "CC(C)C[C@H](NC(=O)[C@H](CCc1ccccc1)NC(=O)CN1CCOCC1)C(=O)N[C@@H](Cc1ccccc1)C(=O)N[C@@H](CC(C)C)C(=O)[C@@]1(C)CO1",
    "PGC/ERR-HEK293 Follow-Up Efficacy / %": "−150"
  },
  {
    "molecule": "C[C@@H]1CC[C@H]2[C@@H](C)C(=O)O[C@@H]3O[C@@]4(C)CC[C@@H]1[C@]32OO4",
    "PGC/ERR-HEK293 Follow-Up Efficacy / %": "−72.8"
  },
  {
    "molecule": "COc1cc([C@@H]2c3cc4c(cc3[C@@H](O[C@@H]3O[C@@H]5CO[C@@H](C)O[C@H]5[C@H](O)[C@H]3O)[C@H]3COC(=O)[C@H]23)OCO4)cc(OC)c1O [Etoposide]",
    "PGC/ERR-HEK293 Follow-Up Efficacy / %": 89.3
  },
  {
    "molecule": "Cc1nn(C)c(Oc2ccccc2)c1C=NOCc1ccc(C(=O)OC(C)(C)C)cc1 [Fenpyroximate]",
    "PGC/ERR-HEK293 Follow-Up Efficacy / %": "−56.2"
  },
  {
    "molecule": "CC[C@@]1(O)C(=O)OCc2c1cc1n(c2=O)Cc2c-1nc1ccccc1c2/C=N/OC(C)(C)C",
    "PGC/ERR-HEK293 Follow-Up Efficacy / %": "−130"
  }
]

a. CC(C)C[C@H](NC(=O)[C@H](Cc1ccccc1)NC(=O)c1cnccn1)B(O)O
b. Cc1nc(N)nc(N)c1-c1ccc(Cl)c(Cl)c1
Between a and b , whose measured PGC/ERR-HEK293 Follow-Up Efficacy reads higher? Field: selected label. Fill in the label of the entry you choose.
b
(b: −61.5%, a: −116%)
